# target-desc: LRH-1 LBD (Homo sapiens, UniProt O00482)
# Construct: LRH-1 LBD (residues 299-541) in the pMSC7 vector was expressed in BL21 (DE3) pLysS E. coli; made in house; host or cells: E. coli BL21 (DE3) pLysS
# Sequence (O00482 299-541): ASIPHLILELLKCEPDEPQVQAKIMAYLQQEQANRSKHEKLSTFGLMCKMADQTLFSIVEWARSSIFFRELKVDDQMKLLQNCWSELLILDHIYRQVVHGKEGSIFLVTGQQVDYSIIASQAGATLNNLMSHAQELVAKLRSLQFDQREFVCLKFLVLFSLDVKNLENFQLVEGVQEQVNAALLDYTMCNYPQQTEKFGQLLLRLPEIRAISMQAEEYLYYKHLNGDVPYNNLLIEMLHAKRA
# assay-summary: Thermofluor (DSF) assay, purified LRH-1 LBD-His protein
# Format: binding
# settings: 50 μM compound; relative to DLPC-bound LRH-1; read-out: ΔTm (mean +/− SEM) (° C.)
# Procedure: Thermofluor assays—Purified LRH-1 LBD-His protein (0.2 mg/ml) was incubated overnight with 50 μM of each compound at 4° C. The final DMSO concentration in the reactions was 1%. SYPRO orange dye (Invitrogen) was then added at a 1:1000 dilution. […] Data were analyzed by first subtracting baseline fluorescence (ligands+SYPRO with no protein) and then fitting the curves using the Bolzman equation (GraphPad Prism, v6) to determine the Tm. […]
readout-label: ΔTm at 50 µM (°C)

>>> numeric_result("C=C(c1ccccc1C)[C@@]12CC[C@@H](O)C1CC(CCCCCC)=C2c1ccccc1 (mixture of isomers)")
1.3
>>> numeric_result("C=C(c1ccccc1)[C@@]12CC[C@@H](O)C1CC(CCCCCCCCOC(C)=O)=C2c1ccccc1 (stereo partly drawn) [Compound 47-exo]")
1.5

[P] C=C(c1ccccc1)[C@@]12CC[C@@H](OS(C)(=O)=O)C1CC(CCCCCC)=C2c1ccccc1 (stereo partly drawn) [Compound 30-exo]
[Q] C=C(c1ccccc1)[C@@]12CC[C@@H](O)[C@@H]1CC(CCCCCCCO)=C2c1ccccc1 (relative stereo)
Lab note: record which item had the higher ΔTm at 50 µM, P or Q . The response must carry the label of the picked entry.
Q
(Q: 3.7 °C, P: 1.1 °C)

----------
# target-desc: LRH-1 (Homo sapiens)
# Construct: The transfected plasmids included full-length LRH-1 in a pCI vector; expressed in transfected cells; host or cells: HeLa
# Sequence (O00482 whole entry): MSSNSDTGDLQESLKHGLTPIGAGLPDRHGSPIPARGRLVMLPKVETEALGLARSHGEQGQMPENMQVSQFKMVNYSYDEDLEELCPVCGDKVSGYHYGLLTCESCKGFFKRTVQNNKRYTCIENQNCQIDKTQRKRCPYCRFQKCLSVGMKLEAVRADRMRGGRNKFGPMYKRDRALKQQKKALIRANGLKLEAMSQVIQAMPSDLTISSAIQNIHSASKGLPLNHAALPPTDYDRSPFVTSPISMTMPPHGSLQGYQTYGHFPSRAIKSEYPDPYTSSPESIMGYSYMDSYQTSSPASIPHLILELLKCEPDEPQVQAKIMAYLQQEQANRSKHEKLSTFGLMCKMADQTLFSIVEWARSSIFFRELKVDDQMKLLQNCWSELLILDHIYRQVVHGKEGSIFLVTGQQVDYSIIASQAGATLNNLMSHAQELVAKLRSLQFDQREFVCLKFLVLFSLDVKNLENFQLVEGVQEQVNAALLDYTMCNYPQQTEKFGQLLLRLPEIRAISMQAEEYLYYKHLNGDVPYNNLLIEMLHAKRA
# assay-summary: Luciferase reporter assay (SHP-luc) in HeLa cells transfected with full-length LRH-1
# Assay type: cell-based
# settings: HeLa cells, SHP-luc reporter, 24 hours, 0.03-30 μM
pEC50: −log10 of the molar value.
readout-label: pEC50

# count of solved cases: 3
>>> numeric_result("C=C(c1ccccc1)[C@@]12CC[C@@H](N=[N+]=[N-])C1CC(CCCCCC)=C2c1ccccc1 (stereo partly drawn) [Compound 31-exo]")
5.70
>>> numeric_result("C=C(c1ccccc1)[C@@]12CC[C@H](N=[N+]=[N-])C1CC(CCCCCC)=C2c1ccccc1 (stereo partly drawn) [Compound 31-endo]")
5.30
>>> numeric_result("C=C(c1ccccc1)[C@@]12CC[C@H](OS(C)(=O)=O)C1CC(CCCCCC)=C2c1ccccc1 (stereo partly drawn) [Compound 30-endo]")
6.30

[P] C=C(c1ccccc1)C12CC(O)C(O)C1CC(CCCCCC)=C2c1ccccc1 (centres unmarked) [Compound 52]
[Q] C=C(c1ccccc1)[C@@]12CC[C@@H](O)[C@@H]1CC(CCCCCCCCO)=C2c1ccccc1 (relative stereo) [Compound 9e]
Lab note: record which item had the higher pEC50, P or Q . The response must carry the label of the picked entry.
P

----------
# target-desc: LRH-1 LBD (Homo sapiens, UniProt O00482)
# Construct: LRH-1 LBD (residues 299-541) in the pMSC7 vector was expressed in BL21 (DE3) pLysS E. coli; made in house; host or cells: E. coli BL21 (DE3) pLysS
# assay-summary: Thermofluor (DSF) assay, purified LRH-1 LBD-His protein
# Type: binding
# settings: 50 μM compound; relative to DLPC-bound LRH-1; read-out: ΔTm (mean +/− SEM) (° C.)
readout-label: ΔTm at 50 µM (°C)

[1] C=C(c1ccccc1)[C@@]12CC[C@@H](NC(N)=O)C1CC(CCCCCC)=C2c1ccccc1 (stereo partly drawn) [Compound 36-exo]
[2] C=C(c1ccccc1)[C@@]12CC[C@@H](O)[C@@H]1CC(CCCCCC(=O)O)=C2c1ccccc1 (relative stereo)
[3] C=C(c1ccccc1)[C@@]12CC[C@@H](OC(N)=O)C1CC(CCCCCC)=C2c1ccccc1 (stereo partly drawn) [Compound 29-exo]
Rank by decreasing ΔTm at 50 µM the items listed here. Please respond by ranking the labels in the order requested.
2, 3, 1
